Provenance of the data: paper PMC10500568

Biological target: MurA enzyme from E. coli (Escherichia coli, UniProt P0A749)
Sequence (P0A749 whole entry): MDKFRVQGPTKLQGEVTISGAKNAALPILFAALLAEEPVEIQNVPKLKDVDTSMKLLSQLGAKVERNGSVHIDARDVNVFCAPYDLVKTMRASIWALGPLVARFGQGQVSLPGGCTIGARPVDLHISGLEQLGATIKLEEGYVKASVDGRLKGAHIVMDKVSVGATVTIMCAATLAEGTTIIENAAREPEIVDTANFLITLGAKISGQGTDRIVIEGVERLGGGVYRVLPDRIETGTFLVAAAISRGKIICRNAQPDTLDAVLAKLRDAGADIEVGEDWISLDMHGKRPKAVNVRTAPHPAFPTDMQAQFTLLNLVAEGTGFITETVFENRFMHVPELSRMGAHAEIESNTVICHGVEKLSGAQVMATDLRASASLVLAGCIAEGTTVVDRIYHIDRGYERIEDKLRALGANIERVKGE
Assay: MurA inhibition assay (malachite green, orthophosphate release)
Format: biochemical
Settings: without preincubation
Method: To determine the inhibition of MurA, the colorimetric assay with malachite green was used to measure the release of orthophosphate generated during the reaction.[30] […] The reaction was stopped after a 15 min incubation at 37 °C by adding the Biomol reagent (100 μL, Enzo Life Sciences, New York), and the absorbance was measured after 5 min at 650 nm using a microplate reader (BioTek, Synergy H4). […]
Label fulfilled when Hill coefficient, 0 min is at or above 1; anything below gets not fulfilled.

COMPOUND: O=C1c2c(O)cc(O)cc2O[C@H](c2cc(O)c(O)c(O)c2)[C@H]1O [Compound 49, ampelopsin]
TARGET SYSTEM: MurA enzyme from E. coli (Escherichia coli, UniProt P0A749)
CLASS NAME: not fulfilled
--
COMPOUND: O=c1c(O)c(-c2ccc(O)c(O)c2)oc2cc(O)ccc12 [Compound 2, fisetin]
TARGET SYSTEM: MurA enzyme from E. coli (Escherichia coli, UniProt P0A749)
CLASS NAME: fulfilled
--
COMPOUND: Oc1cc(O)c2c(c1)O[C@H](c1ccc(O)c(O)c1)[C@@H](O)[C@H]2O [Compound 35, leucocyanidin]
TARGET SYSTEM: MurA enzyme from E. coli (Escherichia coli, UniProt P0A749)
CLASS NAME: fulfilled
--
COMPOUND: COc1cc(O)c2c(=O)c(O)c(-c3ccc(O)c(O)c3)oc2c1 [Compound 8, rhamnetin]
TARGET SYSTEM: MurA enzyme from E. coli (Escherichia coli, UniProt P0A749)
CLASS NAME: fulfilled
--
COMPOUND: O=c1c(O)c(-c2ccc(O)c(O)c2)oc2cc(O)cc(O)c12 [Compound 9, quercetin]
TARGET SYSTEM: MurA enzyme from E. coli (Escherichia coli, UniProt P0A749)
CLASS NAME: not fulfilled
--
COMPOUND: O=c1c(O)c(-c2cc(O)c(O)c(O)c2)oc2cc(O)cc(O)c12 [Compound 4, myricetin]
TARGET SYSTEM: MurA enzyme from E. coli (Escherichia coli, UniProt P0A749)
CLASS NAME: not fulfilled
--
COMPOUND: O=c1cc(-c2ccccc2)oc2c(O)c(O)ccc12 [Compound 25, 7,8-dihydroxyflavone]
TARGET SYSTEM: MurA enzyme from E. coli (Escherichia coli, UniProt P0A749)
CLASS NAME: fulfilled
